# testSystem: MSI-1 RRM1-2 (Homo sapiens, UniProt O43347 1-200)
# Sequence (O43347 1-200): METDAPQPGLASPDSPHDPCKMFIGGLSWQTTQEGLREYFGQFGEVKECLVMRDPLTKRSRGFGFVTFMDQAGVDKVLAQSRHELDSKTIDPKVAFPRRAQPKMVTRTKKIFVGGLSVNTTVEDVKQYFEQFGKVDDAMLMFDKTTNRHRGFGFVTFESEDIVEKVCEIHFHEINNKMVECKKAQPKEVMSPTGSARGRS
# experimentSummary: SPR; KD1 monovalent, 1:2 model; NMR: 50 mM Tris-HCl, 140 mM NaCl, 1 mM EDTA, 1 mM protease inhibitors, pH 7.2 (RRM1: pH 7.5), 298 K; fluorescence quenching: 50 mM Tris pH 7.2, 140 mM NaCl, 1 mM EDTA; SPR: biotinylated RNA immobilised, buffer not in the material
# conditionParameters: protein: recombinant; label: biotin for SPR; unlabelled for NMR; hairpin
endpointName: pKd
Scale note: pKd = -log10(concentration in M).

Query: pKd; subject: AAGCGUUAGUUAUUUAGUCGCUU (structured_RNA) [oligo-HP4]
7.11

Suppose we examine the binder CACUCUGUAGUAUGUAGGGUUUAUUU (structured_RNA) [oligo-HP5] ; what pKd value has been reported?
7.31
